The origin of these recorded values is paper PMC6481723.

For each entry below, report its Kd value.
- TGT: fibrinogen (Bos taurus, UniProt P02672+P02676+P12799)
- Sequence (P12799 25-444): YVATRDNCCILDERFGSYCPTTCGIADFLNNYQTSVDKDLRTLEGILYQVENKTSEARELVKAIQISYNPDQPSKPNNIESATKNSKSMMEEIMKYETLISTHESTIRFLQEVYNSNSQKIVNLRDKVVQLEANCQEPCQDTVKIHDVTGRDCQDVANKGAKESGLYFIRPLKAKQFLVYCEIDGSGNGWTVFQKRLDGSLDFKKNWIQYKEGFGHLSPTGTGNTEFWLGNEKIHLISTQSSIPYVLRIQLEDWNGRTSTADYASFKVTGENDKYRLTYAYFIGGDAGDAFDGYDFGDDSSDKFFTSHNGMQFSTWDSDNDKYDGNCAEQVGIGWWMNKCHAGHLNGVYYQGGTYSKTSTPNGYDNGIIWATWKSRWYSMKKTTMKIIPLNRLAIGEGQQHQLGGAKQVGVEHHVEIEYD
- Sequence (P02676 whole entry): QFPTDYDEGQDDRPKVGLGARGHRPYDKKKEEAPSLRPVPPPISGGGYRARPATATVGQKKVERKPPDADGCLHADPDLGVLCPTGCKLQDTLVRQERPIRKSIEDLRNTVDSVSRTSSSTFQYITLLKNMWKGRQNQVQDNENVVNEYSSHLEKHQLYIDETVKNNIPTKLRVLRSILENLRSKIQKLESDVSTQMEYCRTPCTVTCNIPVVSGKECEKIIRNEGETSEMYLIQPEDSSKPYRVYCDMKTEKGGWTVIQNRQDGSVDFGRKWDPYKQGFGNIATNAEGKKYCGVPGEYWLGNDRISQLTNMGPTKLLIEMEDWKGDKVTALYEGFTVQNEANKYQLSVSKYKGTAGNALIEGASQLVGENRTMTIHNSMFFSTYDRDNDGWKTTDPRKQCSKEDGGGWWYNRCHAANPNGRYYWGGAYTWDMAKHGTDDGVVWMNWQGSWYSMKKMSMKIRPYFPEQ
- Sequence (P02672 20-615 partner): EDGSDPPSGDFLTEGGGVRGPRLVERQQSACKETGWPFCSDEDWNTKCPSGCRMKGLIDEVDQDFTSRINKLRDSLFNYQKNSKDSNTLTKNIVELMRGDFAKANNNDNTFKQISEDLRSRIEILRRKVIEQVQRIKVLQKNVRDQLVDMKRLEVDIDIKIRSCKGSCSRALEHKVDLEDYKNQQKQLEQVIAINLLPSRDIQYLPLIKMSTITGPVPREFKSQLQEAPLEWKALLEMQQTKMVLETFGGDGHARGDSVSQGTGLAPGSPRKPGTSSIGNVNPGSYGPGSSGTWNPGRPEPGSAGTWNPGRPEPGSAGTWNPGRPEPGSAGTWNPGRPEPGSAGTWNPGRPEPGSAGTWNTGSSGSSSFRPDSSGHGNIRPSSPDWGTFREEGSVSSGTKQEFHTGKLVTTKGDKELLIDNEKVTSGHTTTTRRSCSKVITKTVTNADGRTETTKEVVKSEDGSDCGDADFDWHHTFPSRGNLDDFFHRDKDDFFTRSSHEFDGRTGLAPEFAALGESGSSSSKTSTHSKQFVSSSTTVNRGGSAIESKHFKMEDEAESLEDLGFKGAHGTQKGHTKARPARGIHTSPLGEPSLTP
- METHOD DESCRIPTION: Fluorescence anisotropy (FA) saturation experiments with fluorescein-labelled peptides
- Assay type: binding
- CONDITION CONTEXT: 5IAF-labelled peptide 25-30 μM, fibrinogen 50 nM-103 μM, HBS, 1 h room temperature; Hill model; n = 3
Ends that are not written are not given here.
Quick note: number first, unit second.

State the recorded Kd for this entry: GHRPGCG [Pep2]
335 µM

Consider the additional substance presented here.
State the recorded Kd for this entry: GPRPGCG [Pep1]
40 µM
